Entry source: the supplement of paper PMC9694430

Test system: LOC_OS01G57100-cb003;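 also: purified Escherichia coli-expressed rice kinase domain construct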
assay-remarks: thermal shift delta Tm vs DMSO control; higher = stronger stabilization (binding)
settings: 12.5 µM; protein concentration 2 µM
measured-metric: thermal shift delta Tm (°C)
Provide the reading as a plain figure in °C.

These solved cases illustrate the format of a correct answer.
Problem: Name the reported thermal shift delta Tm value associated with the molecule CO[C@H]1C[C@@H]2CC[C@@H](C)[C@@](O)(O2)C(=O)C(=O)N2CCCC[C@H]2C(=O)O[C@H]([C@H](C)C[C@@H]2CC[C@H](n3cnnn3)[C@H](OC)C2)CC(=O)[C@H](C)/C=C(\C)[C@@H](O)[C@@H](OC)C(=O)[C@H](C)C[C@H](C)/C=C/C=C/C=C/1C [Zotarolimus(ABT-578)]
Result: 2.14

Problem: Name the reported thermal shift delta Tm value associated with the molecule O=C(NOCC(O)CO)c1cc(Br)c(F)c(F)c1Nc1ccc(I)cc1F (stereo unspecified)
Result: 2.4

Problem: Name the reported thermal shift delta Tm value associated with the molecule COc1cc2ncnc(Nc3cccc(Cl)c3)c2cc1OC [AG-1478 (Tyrphostin AG-1478)]
Result: 1.76

Problem: Name the reported thermal shift delta Tm value associated with the molecule COCCOc1cnc2ccn([C@H](C)c3nnc4c(F)cc(-c5cnn(C)c5)cn34)c(=O)c2c1
Result: 0.7

Problem: Name the reported thermal shift delta Tm value associated with the molecule COC1(c2sc3c(N4CCOCC4)nc(-c4cnc(N)nc4)nc3c2C)COC1
Result: 0.25

Consider now this further molecule.
Problem: Name the reported thermal shift delta Tm value associated with the molecule NC(=O)c1cnc2[nH]ccc2c1N[C@@H]1[C@@H]2CC3C[C@H]1C[C@@](O)(C3)C2
Result: 0.13
